Test: soluble on expression in E. coli; label from the status in PepcDB or PDB records
recordedEndpoint: soluble on expression in E. coli

>  <residueCodes>
GTEETAKVVPMAVITPAINQLTDQEKAEGWALLFDGKTTKGWRGAHKDAFPDHGWMVKDGELIVQKSDGSESTNGGDIVTEGEYSAFEFSVDFKITEGANSGIKYFVTEQEKQKGSAYGLEFQLLDDAKHPDAKLYTTFPGSRTLGSLYDLKKSENIHFNGVGEWNTAVVKVFPNNHVEHWLNGVKVLEYERGSKEFRDLVKGSKYADPSYNAGGAFGEAPKGHILLQDHGDEVAFRNIKVKELK

>  <recordedEndpoint>
soluble on expression in E. coli

>  <readoutValue>
soluble

$$$$
>  <residueCodes>
MDEFIIKRAKELQGYIVEKRRDFHMYPELKYEEERTSKIVEEELKKLGYEVVRTAKTGVIGILKGKEDGKTVALRADMDALPIQEENDVPYKSRVPGKMHACGHDAHTAMLLGAAKILAEMKDELQGTVKLIFQPAEEGGLGAKKIVEEGHLDDVDAIFGIHVWAELPSGIIGIKSGPLLASADAFRVLIKGKGGHGAAPHLSIDPIALAVDLVNAYQKIISREVDPLQPAVLSVTSIKAGTTFNVIPESAEILGTIRTFDEEVRDYIVRRMKEITENFANGMRCEGKFELTIEHIPPTINNEKLANFARDVLKVLGEIREPKPTMGAEDFAFYTTKAPGLFIFLGIRNEEKGIIYPHHHPKFNVDEDILWMGAAIHSLLTYHYLSL

>  <recordedEndpoint>
soluble on expression in E. coli

>  <readoutValue>
soluble

$$$$
